Assay: Components of the Cytosolic LPS Sensing Pathway: Gene Identification via Genome-wide siRNA Screen
Conditions: RAW264.7 macrophages, IL-1a HTRF, actives lie on both sides, screened at 100 nM (by protocol), cells primed 5 h with Pam3CSK4 first
The campaign covered roughly 53,000 sequences. About 3,700 (7%) were called active. Shown is part of a subset that was picked to be rich in actives.
Rule for this label: t means z-score is less than -0.6; f means z-score is at least -0.6.

Use the examples below as a reference point.
GAGACACUUGUGCUGUAGGTT against F730035P03Rik: f
GGCCACCGUUCAAAAAAUUTT against Dctn5: f
GGACAGAGUUUUCAUUUUGTT against Rptn: t
GGAGGAAUCAAAGGCUCCUTT against Slc39a5: f

Asked: Check if z-score falls below -0.6 for GCUAAGGUCUUACUCCUGGTT against Cdca4 .
Given back: f

Asked: Hi there! Is z-score for GGACAUCUCCUUGAUCUUGTT against Slc1a5 below -0.6, do you know?
Given back: t

Asked: Determine if GGGAAGCAACAUGAUUAAATT against Kat7 shows z-score strictly lower than -0.6.
Given back: f

Asked: Does the reported z-score of the following sequence sit strictly below -0.6? CGGCGUAUGAGGAUUGGUUTT against Atp8b1
Given back: t

Asked: Field: below-cutoff. Rule: recorded z-score strictly less than -0.6. Subject: CCGCGUGUAUAAGUUGGUGTT against Mrpl9
Given back: f
